Tgt: human somatostatin receptor subtype 5 (Homo sapiens, UniProt P35346)
Construct: expressed in transfected cells
Sequence (P35346 whole entry): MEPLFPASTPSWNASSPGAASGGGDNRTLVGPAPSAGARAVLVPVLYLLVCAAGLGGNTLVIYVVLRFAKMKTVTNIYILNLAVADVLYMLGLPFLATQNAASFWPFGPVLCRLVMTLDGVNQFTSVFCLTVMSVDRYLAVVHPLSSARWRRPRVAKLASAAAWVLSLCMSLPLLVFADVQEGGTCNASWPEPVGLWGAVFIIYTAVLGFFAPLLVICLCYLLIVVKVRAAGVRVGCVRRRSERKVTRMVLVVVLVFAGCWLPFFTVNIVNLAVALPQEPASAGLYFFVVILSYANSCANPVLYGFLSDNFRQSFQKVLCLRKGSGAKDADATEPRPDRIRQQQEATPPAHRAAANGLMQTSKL
Method description: cAMP assay for SST5R (inhibition of cAMP in CHO-K1 cells)
Format: cell-based
Protocol conditions: Table A; inhibition of cAMP via human SST5 receptor; read-out: SST5 potency
Readout label: EC50

Here are 3 compounds together with their reported answers.
Would you mind telling me what EC50 value was observed for CCC(CC)NC(=O)c1cnc(C#N)c(-c2cc(F)cc(F)c2)c1N1CC[C@H](N)C1 ?
< 10 nM

Would you mind telling me what EC50 value was observed for C[C@H](NC(=O)c1cncc(-c2cccc3c2OC(F)(F)O3)c1N1CC[C@](C)(N)C1)C1CC1 ?
< 10 nM

Would you mind telling me what EC50 value was observed for N#Cc1ncc(C(=O)NCCCc2ccccc2)c(N2CC[C@H](N)C2)c1-c1cc(F)cc(F)c1 ?
< 10 nM

---
Would you mind telling me what EC50 value was observed for C[C@H](NC(=O)c1cnc(OCC2COC2)c(-c2cc(F)cc(F)c2)c1N1CC[C@](C)(N)C1)C1CC1 ?
< 10 nM

Would you mind telling me what EC50 value was observed for Cc1cccc2[nH]c(-c3cncc(C(=O)N4CCC(C)(C)C4)c3N3CC[C@](C)(N)C3)nc12 ?
< 10 nM

Would you mind telling me what EC50 value was observed for CN(CC1CC1)C(=O)c1cnc(C#N)c(-c2cc(F)cc(F)c2)c1N1CC[C@](C)(N)C1 ?
100 to 1000 nM

Would you mind telling me what EC50 value was observed for Cc1cccc2[nH]c(-c3cncc(C(=O)NC45CCC(CC4)C5)c3N3CC[C@](C)(N)C3)nc12 ?
< 10 nM

Would you mind telling me what EC50 value was observed for Cc1cccc2[nH]c(-c3cncc(C(=O)N4CCCC4(C)C)c3N3CC[C@](C)(N)C3)nc12 ?
< 10 nM

----------
Tgt: human somatostatin receptor subtype 5 (Homo sapiens, UniProt P35346)
Construct: expressed in transfected cells
Method description: cAMP assay for SST5R (inhibition of cAMP in CHO-K1 cells)
Type: cell-based
Protocol conditions: Table A; inhibition of cAMP via human SST5 receptor; read-out: SST5 potency
Readout label: EC50

Here are 10 compounds together with their reported answers.
Would you mind telling me what EC50 value was observed for C[C@H](NC(=O)c1cnc(C#N)c(-c2cc(F)cc(F)c2)c1N1CC[C@@](N)(CF)C1)C1CC1 (single isomer, unassigned) ?
< 10 nM

Would you mind telling me what EC50 value was observed for CCOc1cc(-c2c(C(F)(F)F)ncc(C(=O)N[C@@H](C)C3CC3)c2N2CC[C@](C)(N)C2)ccn1 ?
< 10 nM

Would you mind telling me what EC50 value was observed for C[C@]1(N)CCN(c2c(C(=O)Nc3ccccc3F)cncc2-c2ccc(F)c(C#N)c2)C1 ?
< 10 nM

Would you mind telling me what EC50 value was observed for Cc1cccc2[nH]c(-c3cncc(C(=O)N[C@@H](C)C(F)(F)F)c3N3CC[C@](C)(N)C3)nc12 ?
< 10 nM

Would you mind telling me what EC50 value was observed for Cc1cccc2[nH]c(-c3cncc(C(=O)N4CCCC4)c3N3CC[C@](C)(N)C3)nc12 ?
10 to 100 nM

Would you mind telling me what EC50 value was observed for N#Cc1ncc(C(=O)NC2CCCCC2)c(N2CC[C@H](N)C2)c1-c1cc(F)cc(F)c1 ?
< 10 nM

Would you mind telling me what EC50 value was observed for COc1ncc(C(=O)N[C@@H](C)C(F)(F)F)c(N2CC[C@](C)(N)C2)c1-c1cccc2c1OC(F)(F)O2 ?
< 10 nM

Would you mind telling me what EC50 value was observed for C[C@]1(N)CCN(c2c(C(=O)NC3CCC(F)(F)CC3)cncc2-c2cccc(C#N)c2)C1 ?
10 to 100 nM

Would you mind telling me what EC50 value was observed for COc1cc(-c2c(C)ncc(C(=O)N[C@@H](C)C3CC3)c2N2CC[C@](C)(N)C2)ccn1 ?
< 10 nM

Would you mind telling me what EC50 value was observed for COc1ncc(C(=O)N[C@@H](C)C2CC2)c(N2CC[C@H](N)C2)c1-c1cc(F)cc(Cl)c1 ?
< 10 nM

---
Would you mind telling me what EC50 value was observed for Cc1cc(C)cc(NC(=O)c2cncc(-c3cc(C)cc(C)c3)c2N2CC[C@H](N)C2)c1 ?
< 10 nM

Would you mind telling me what EC50 value was observed for COc1ncc(C(=O)N[C@@H](C)C(F)(F)F)c(N2CC[C@H](N)C2)c1-c1cc(F)cc(Cl)c1 ?
< 10 nM

Would you mind telling me what EC50 value was observed for N#Cc1cccc(-c2cncc(C(=O)NC3CCCCC3)c2N2CC[C@H](N)C2)c1 ?
100 to 1000 nM

Would you mind telling me what EC50 value was observed for COc1ncc(C(=O)NC23CC(F)(C2)C3)c(N2CC[C@](C)(N)C2)c1-c1cc(F)cc(F)c1 ?
< 10 nM

Would you mind telling me what EC50 value was observed for Cc1ncc(C(=O)NC2CC(F)(F)C2)c(N2CC[C@](C)(N)C2)c1-c1cc(F)cc(OC(F)F)c1 ?
< 10 nM

Would you mind telling me what EC50 value was observed for N#Cc1ncc(C(=O)NC23CC(C2)C3)c(N2CC[C@](N)(CO)C2)c1-c1cc(F)cc(F)c1 (single isomer, unassigned) ?
> 1000 nM
